Target: GST-PPARG-LBD (Homo sapiens, UniProt P37231)
Construct: A mixture of 5 nM GST-PPARG-LBD; purchased Invitrogen
Sequence (P37231 238-503 limits assumed): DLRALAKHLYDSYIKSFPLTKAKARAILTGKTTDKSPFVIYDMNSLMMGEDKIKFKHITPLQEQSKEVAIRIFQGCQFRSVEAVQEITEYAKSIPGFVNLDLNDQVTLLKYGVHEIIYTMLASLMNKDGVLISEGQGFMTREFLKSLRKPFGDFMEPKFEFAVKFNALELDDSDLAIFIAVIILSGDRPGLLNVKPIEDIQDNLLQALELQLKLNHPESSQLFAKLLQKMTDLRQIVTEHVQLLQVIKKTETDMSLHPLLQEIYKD
Experiment: Lanthascreen PPARG competitive binding assay (Invitrogen)
Details: Table 3, Lantha 2; read-out: IC50 (nM) Lantha 2

{"Smi": "Cc1nn(Cc2ccc(-c3ccccc3-c3nnn[nH]3)cc2)c2ccc(C(=O)N[C@@H](C)c3ccc(Br)cc3)cc12", "IC50": "2.6 nM"}
{"Smi": "CCCCNC(=O)c1ccc2c(c1)c(C)nn2Cc1ccc(-c2ccccc2C(=O)O)cc1", "IC50": "84.1 nM"}
{"Smi": "Cc1nn(Cc2ccc(-c3ccccc3C(=O)O)cc2)c2ccc(C(=O)NC3CCCCC3)cc12", "IC50": "562 nM"}
{"Smi": "Cc1nn(Cc2ccc(-c3ccccc3C(=O)O)cc2)c2ccc(C(=O)NC3CCCCCC3)cc12", "IC50": "176 nM"}
